- Test system: NCI-H322M lung
- Assay Text: NCI-60 one-dose screen, 48 h (100 = growth as untreated, 0 = no growth, -100 = all killed)
- Conditions Used: 10 µM unless noted
About 83,000 compounds went through this panel and 20% of them were active in at least one assay; those are over-represented in the sample as a whole.
Test Readout: growth (%)

[
  {
    "Molecule": "CCN(CC)Cc1c(-c2cccc(OC(F)(F)F)c2)[nH]c2ccc(N3CCCC3)cc2c1=O",
    "Test Readout": "growth",
    "Unit String": "%",
    "Recorded Measurement": 87.3
  },
  {
    "Molecule": "COCCC[C@H]1O[C@@](O)([C@H](C)[C@@H]2CC(OC)C(O)/C=C(C)/C=C(C)/C=C(\\C)C(OC3O[C@@H](C)[C@H](O)C(O)[C@@H]3O)C(C)/C=C(C)/C=C(OC)/C=C(\\C)C(=O)O2)C(OC)C(O)[C@]1(C)O[C@H]1C[C@@H](O)[C@H](O[C@H]2C[C@](C)(O)[C@H](O)C(C)O2)C(C)O1 (some centres not stated)",
    "Test Readout": "growth",
    "Unit String": "%",
    "Recorded Measurement": 97.4
  },
  {
    "Molecule": "O=c1cc(-c2ccccc2)nc2sc(-c3c[nH]c4ccc(F)cc34)nn12",
    "Test Readout": "growth",
    "Unit String": "%",
    "Recorded Measurement": 61.2
  },
  {
    "Molecule": "COc1cc2c3c(n(CCCNC4CCCC4)c(=O)c2cc1OC)-c1cc2c(cc1C3=O)OCO2",
    "Test Readout": "growth",
    "Unit String": "%",
    "Recorded Measurement": 6.3
  },
  {
    "Molecule": "O=C(NNc1nc2cc(F)cc(F)c2n2cccc12)c1ncccn1",
    "Test Readout": "growth",
    "Unit String": "%",
    "Recorded Measurement": 25.5
  },
  {
    "Molecule": "CC(=O)Nc1nc2c(s1)C1=CC[C@H]3[C@@H]4CC[C@H](C(C)=O)[C@@]4(C)CC[C@@H]3[C@@]1(C)CC2",
    "Test Readout": "growth",
    "Unit String": "%",
    "Recorded Measurement": 77.1
  },
  {
    "Molecule": "C(=C(\\C1=NCCN1)n1cnc2ccccc21)/c1cccc2ccccc12",
    "Test Readout": "growth",
    "Unit String": "%",
    "Recorded Measurement": 88.2
  }
]

---

- Test system: MOLT-4 leukemia
- Assay Text: NCI-60 one-dose screen, 48 h (100 = growth as untreated, 0 = no growth, -100 = all killed)
- Conditions Used: 10 µM unless noted
The panel holds about 83,000 compounds, 20% with a hit somewhere; the sample as a whole holds those more often. Active and inactive are the calls of the source. The calls were made as follows: active = growth percent below 10; inactive = the rest.

[
  {
    "Molecule": "N=c1c2cc(-c3ccccc3)oc2ncn1/N=C/c1ccccc1",
    "growth": "65.3% (inactive)"
  },
  {
    "Molecule": "CCOC(=O)c1c(NCC(=O)Nc2ccc(Br)cc2)sc2c1CCCC2",
    "growth": "16.8% (inactive)"
  },
  {
    "Molecule": "Cc1ccccc1NC1CC(=O)N(c2ccc(Cl)cc2Cl)C1=O (centres undefined)",
    "growth": "117% (inactive)"
  },
  {
    "Molecule": "Oc1ccc(CSc2nnc(-c3cnccn3)n2-c2ccccc2)c2cccnc12",
    "growth": "21.3% (inactive)"
  },
  {
    "Molecule": "CN1CCN(Cc2ccc(NC(=O)c3cncc(C#Cc4cnc5ccc(NC6CCOCC6)nn45)c3)cc2C(F)(F)F)CC1",
    "growth": "5.18% (active)"
  },
  {
    "Molecule": "O=C(Nc1cc(Cl)cc(Cl)c1)Nc1nc2ccc([N+](=O)[O-])cc2s1",
    "growth": "2.31% (active)"
  },
  {
    "Molecule": "Cc1cc(F)cc(NS(=O)(=O)c2ccc(-c3cnc(C4CC4)o3)cc2)c1",
    "growth": "26.1% (inactive)"
  },
  {
    "Molecule": "CCCCCCCCNC(=O)c1ccc(Cn2c(CCCC)nc3c(N)nc4ccccc4c32)cc1",
    "growth": "-7.07% (active)"
  },
  {
    "Molecule": "C#C[C@]1(O)CC[C@H]2[C@@H]3CC=C4c5sc(Nc6cccc(Cl)n6)nc5CC[C@]4(C)[C@H]3CC[C@@]21C",
    "growth": "-15.9% (active)"
  },
  {
    "Molecule": "CCN(CC)CCN1C(=O)c2c(c3c4cccnc4[nH]c3c3ccc4ccccc4c23)C1=O",
    "growth": "12.8% (inactive)"
  },
  {
    "Molecule": "COc1cc(O)c2c(c1)/C=C/C[C@H](O)[C@H](O)C(=O)/C=C\\C[C@H](C)OC2=O",
    "growth": "5.34% (active)"
  },
  {
    "Molecule": "N#Cc1c(NC(=O)c2ccccc2C(F)(F)F)sc2c1CCC(=O)C2",
    "growth": "11.2% (inactive)"
  },
  {
    "Molecule": "CN(c1ccc(Br)cc1)S(=O)(=O)c1ccc(-c2cnc(C3CC3)o2)cc1",
    "growth": "23.5% (inactive)"
  },
  {
    "Molecule": "CNC(=O)c1cc(Oc2ccc3nc(NC(=O)c4ccc(CN5CCCN(C)CC5)c(C(F)(F)F)c4)sc3c2)ccn1",
    "growth": "-35.2% (active)"
  },
  {
    "Molecule": "COc1cc2oc(-c3cccc(NC(=O)c4cc(NC(=O)[C@H](C)NC(=O)OC(C)(C)C)ccc4C)c3)cc(=O)c2c(OC)c1OC",
    "growth": "51.5% (inactive)"
  },
  {
    "Molecule": "C=C(C)C(=O)O[C@H]1C[C@@]2(C)OC(=CC2=O)[C@H](C)[C@H](O)[C@H]2OC(=O)C(=C)[C@@H]21",
    "growth": "76.6% (inactive)"
  },
  {
    "Molecule": "COc1cc2cc(Oc3ccc(NC(=O)Nc4cccc(C(F)(F)F)c4)cc3)c(C)nc2cc1OCCN(C)C",
    "growth": "80.5% (inactive)"
  },
  {
    "Molecule": "CCOC(=O)c1nn(-c2ccccc2)c(=O)c2c(N)c(C#N)c(-c3cccs3)cc12",
    "growth": "97% (inactive)"
  },
  {
    "Molecule": "O=S(=O)(Nc1ccc(C2CC2)cc1)c1ccc(-c2cnc(C3CC3)o2)cc1",
    "growth": "41.3% (inactive)"
  }
]
